# Target Entity: T1, IL-11 protein (UniProt P20809 22-199, limits assumed)
# T1 construct: also called IL-11 antigen
# T1 sequence (looked up): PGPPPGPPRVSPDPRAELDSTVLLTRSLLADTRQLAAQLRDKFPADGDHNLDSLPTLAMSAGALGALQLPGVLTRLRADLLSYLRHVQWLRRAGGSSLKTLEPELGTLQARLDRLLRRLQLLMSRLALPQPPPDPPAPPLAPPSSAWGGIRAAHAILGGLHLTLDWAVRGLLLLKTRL
# Assay Explanation: SPR (Biacore), antibody captured, 400 nM IL-11 as analyte
pKd: −log10 of the molar value.
Measured Quantity: pKd

Binder	Obs Value
VH3 + VL2-scFv (scFv, V domains shown, Humanized 5-20E11-5F2; CHO supernatant; Called scFv, but heavy and light vectors were co-transfected) VH: QVQLVQSGAEVKKPGASVKVSCKASDYTFTNYWLGWVRQAPGQGLEWIGHIYPGGGYTNYNEKFKGRATLTADTSTSTVYMELSSLRSEDTAVYFCARVRSGNDALDFWGQGTLVTVSS VL: EIVLTQSPATLSLSPGERATLSCRASESVDEYGISFMNWYQQKPGQAPRLLIYSASNQGSGIPARFSGSGSGTDFTLTISSLEPEDFAVYFCQQSKEVPWTFGGGTKLEIK	7.84
VH4 + VL4-scFv (scFv, V domains shown, Humanized 5-20E11-5F2; CHO supernatant; Called scFv, but heavy and light vectors were co-transfected) VH: QVQLVQSGAEVKKPGASVKVSCKASDYTFTNYWLGWVRQAPGHGLEWIGHIYPGGGYTNYNEKFKGRATLTADTSTSTVYMELSSLRSEDTAVYFCARVRSGNDALDFWGQGTLVTVSS VL: EIVLTQSPATLSLSPGERATLSCRASESVDEYGISFMNWFQQKPGQAPRLLIYSASNQGSGIPARFSGSGSGTDFTLTISSLEPEDFAMYFCQQSKEVPWTFGGGTKLEIK	8.00
VH1 + VL3-scFv (scFv, V domains shown, Humanized 5-20E11-5F2; CHO supernatant; Called scFv, but heavy and light vectors were co-transfected) VH: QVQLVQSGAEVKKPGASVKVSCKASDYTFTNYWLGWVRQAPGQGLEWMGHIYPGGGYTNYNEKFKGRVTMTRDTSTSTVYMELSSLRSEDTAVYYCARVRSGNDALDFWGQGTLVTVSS VL: EIVLTQSPATLSLSPGERATLSCRASESVDEYGISFMNWFQQKPGQAPRLLIYSASNQGSGIPARFSGSGSGTDFTLTISSLEPEDFAVYFCQQSKEVPWTFGGGTKLEIK	7.91
